assay: DUSP6 inhibitors restoring Erk phosphorylation by chemical complementation, primary imaging in DUSP6-transfected HeLa (AID 609); conditions: HeLa MKP-3 transfected, phospho-Erk imaging KS statistic; measured here: nuclear pErk red intensity z-score; at 10 µM; stronger effect = higher value; cells stimulated with TPA for 15 min
metric: z-score

{"columns": ["compound", "metric", "observedResult"],
 "data": [
  ["Cc1cc(N2CCN(C3CCCC3)CC2)n2c(nc3ccccc32)c1C#N", "z-score", -0.0668],
  ["CCCSc1nc(C)c(CC(=O)O)c(=O)[nH]1", "z-score", -0.67],
  ["COc1c(O)ccc2cnn(-c3ccccc3C)c(=O)c12", "z-score", 0.382],
  ["Cn1ncc2nnn(-c3ccccc3)c(=O)c21", "z-score", -1.2],
  ["CCCSc1nc(N2CCCC2)c2c(c1C#N)CC(C)(C)OC2", "z-score", -0.14],
  ["CC1(C)Cc2c(sc3nc4n(c(=O)c23)CCC4)CO1", "z-score", 1.2],
  ["CN(C)CCOc1ccccc1Cc1ccccc1", "z-score", -0.949],
  ["Cc1ccc(N(Cc2cc3ccccc3[nH]c2=O)C(=O)c2ccco2)c(C)c1", "z-score", 0.6],
  ["CCNCc1cc2cc(C)ccc2[nH]c1=O", "z-score", -1.38],
  ["CC1(C)Cc2c(C#N)c(SCCC#N)nc(N3CCOCC3)c2CS1", "z-score", -1.34],
  ["CCn1nc(NC(=O)c2cccnc2)c2cc3ccccc3nc21", "z-score", -0.336],
  ["CSc1nc(N2CCCC2)c2c(c1C#N)CC(C)(C)OC2", "z-score", 0.374],
  ["CC(=O)OCC(=O)[C@@]12OC(C)(C)O[C@@H]1C[C@H]1[C@@H]3C[C@H](F)C4=CC(=O)C=C[C@]4(C)[C@@]3(F)[C@@H](O)C[C@@]12C", "z-score", -0.0296],
  ["COc1ccccc1-c1cc(-c2cc(Cl)ccc2O)n[nH]1", "z-score", -0.306],
  ["COc1ccc(OC)c(C(O)c2coc3ccc(O)c(CN4CCOCC4)c23)c1 (stereo not given)", "z-score", 0.346],
  ["Cn1c(SCC(=O)NCc2ccccc2)nc2ccccc21", "z-score", -0.441],
  ["COc1ccc(Cn2c(N)c(C#N)c3nc4ccccc4nc32)cc1OC", "z-score", -0.944],
  ["CCN(CC)CCCN1C(=O)C(=O)/C(=C(/O)c2ccc(C)cc2)C1c1ccccn1 (stereo not given)", "z-score", -0.132],
  ["Fc1ccc2[nH]c3c(N4CCN(C5CCCCC5)CC4)ncnc3c2c1", "z-score", 1.42],
  ["O=c1c2ccccc2[nH]c(=S)n1CCN1CCC(=C(c2ccc(F)cc2)c2ccc(F)cc2)CC1", "z-score", 0.771],
  ["O=C1C=C(O)CC(c2cccs2)C1 (stereo not given)", "z-score", -0.148],
  ["CCOc1nc(SCCOc2ccccc2)nc(N(C)C)n1", "z-score", -0.913],
  ["Cc1[nH]c(=O)[nH]c(=O)c1S(=O)(=O)N1CCCC1", "z-score", 0.397],
  ["CN1[C@@H](CC(=O)c2ccccc2)CCC[C@H]1C[C@H](O)c1ccccc1", "z-score", 0.339],
  ["CCCCOc1ccc(CSC(CC(=O)O)C(=O)O)cc1 (stereo not given)", "z-score", 0.193],
  ["Cc1c(OCc2ccccc2)c(=O)ccn1Cc1ccccc1", "z-score", -0.326],
  ["N/C(CCN1CCOCC1)=N/O", "z-score", 0.254],
  ["CCN1C(=O)CC(N2CCN(c3ccc(OC)cc3)CC2)C1=O (stereo not given)", "z-score", -0.692],
  ["CCOC(=O)c1c(CN2CCCCC2)oc2ccc(OC)cc12", "z-score", 0.702],
  ["Cc1ccc2cc(CN(C(=O)c3ccco3)c3ccccc3)c(=O)[nH]c2c1", "z-score", -0.563],
  ["Cc1ccccc1N1C(=O)C2ON(c3ccccc3)C(c3ccncc3)C2C1=O (stereo not given)", "z-score", 0.414],
  ["CC(C)Cc1[nH]c(=O)c(C#N)c2c1CCCC2", "z-score", 0.412],
  ["Cc1ccc(N2C(=O)[C@@H]3[C@H](C2=O)C2CCCN2[C@@H]3C(=O)c2ccccc2)cc1 (stereo not given in full)", "z-score", 1.07],
  ["COC(=O)C1=C(C)N=C2SC(C)C(=O)N2C1c1cccc(F)c1 (stereo not given)", "z-score", -0.313],
  ["O=C(CSc1nnc(-c2ccccc2)c(-c2ccccc2)n1)N1CCOCC1", "z-score", 1.26],
  ["Cn1c(=O)c2c3c(sc2n2c(SCC(N)=O)nnc12)CC(C(C)(C)C)CC3 (stereo not given)", "z-score", 0.675],
  ["CCC(=O)O[C@@H]1CC(=O)O[C@H](C)CC=CC=C[C@@H](O)[C@H](C)C[C@H](CC=O)[C@H](O[C@H]2O[C@H](C)[C@@H](O[C@H]3C[C@@](C)(O)[C@@H](OC(=O)CC)[C@H](C)O3)[C@H](N(C)C)[C@H]2O)[C@H]1OC", "z-score", -1.92],
  ["CC1(C)Cc2c(oc3ncn4ncnc4c23)CO1", "z-score", 0.382],
  ["N#CC1(c2ccccc2)CCC(=NO)CC1 (stereo not given)", "z-score", -0.351],
  ["N#CCCn1cnc2c(=S)nc[nH]c21", "z-score", 1.37],
  ["Fc1ccc2[nH]c3c(N4CCN(Cc5ccc6c(c5)OCO6)CC4)ncnc3c2c1", "z-score", -0.391],
  ["C=CCNc1sc(C(=O)C2CC2)c(N)c1C#N", "z-score", 0.948],
  ["CN1CCN(CC(=O)N2c3ccccc3C(=O)Nc3cccnc32)CC1", "z-score", -1.97],
  ["Cc1nnc(NCc2n[nH]c(=O)c3ccccc23)c2ccccc12", "z-score", 1.58],
  ["CC(=Nc1ccc(C)c(C)c1)C1=C(O)CCC1=O", "z-score", 0.505]
]}
